# Measured Target: UniProt:P00742
# Test Description: In vitro inhibitory activity against Coagulation factor X
Experimental Endpoint: Ki

# lookup: Ki of "Nc1cc(CNC(=O)[C@@H]2CCCN2C(=O)[C@@H](Cc2ccc(Cl)c(Cl)c2)NS(=O)(=O)Cc2ccccc2)cs1" > 100 µM

###

# Measured Target: Coagulation factor X (Homo sapiens, UniProt P00742)
# Sequence (P00742 41-179 limits assumed): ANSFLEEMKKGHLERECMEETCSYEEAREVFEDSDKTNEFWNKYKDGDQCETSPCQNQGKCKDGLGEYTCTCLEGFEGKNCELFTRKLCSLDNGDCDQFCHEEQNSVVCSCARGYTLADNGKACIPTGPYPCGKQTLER
# Sequence (P00742 235-488 limits assumed): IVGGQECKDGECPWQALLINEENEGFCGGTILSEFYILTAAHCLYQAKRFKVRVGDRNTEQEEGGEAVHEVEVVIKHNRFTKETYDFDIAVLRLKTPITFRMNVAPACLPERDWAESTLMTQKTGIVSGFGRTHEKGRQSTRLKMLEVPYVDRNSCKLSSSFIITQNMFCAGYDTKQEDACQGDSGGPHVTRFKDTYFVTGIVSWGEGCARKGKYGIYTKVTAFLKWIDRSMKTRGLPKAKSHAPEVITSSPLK
# Test Description: In vitro inhibitory activity against Coagulation factor X
Experimental Endpoint: pKi
Conceptually, pKi converts a concentration in mol/L into minus its log10.

Consider the compound shown here: "CC(C)(C)OC(=O)N[C@@H](C(=O)N1CCC[C@H]1C(=O)NCc1csc(N)c1)C(C1CCCCC1)C1CCCCC1" What is its recorded pKi? 4.57

Which pKi reading was recorded for the compound "Nc1ccc(CNC(=O)[C@@H]2CCCN2C(=O)[C@@H](Cc2ccc(Cl)c(Cl)c2)NS(=O)(=O)Cc2ccccc2)cn1" ? 5.12

Form field: reported pKi of "Cc1cc(N)nc(C)c1CNC(=O)[C@@H]1CCCN1C(=O)[C@H](NC(=O)OC(C)(C)C)C(C1CCCCC1)C1CCCCC1" 4.80

Given the entry "Cc1cc(N)nc(C)c1CNC(=O)[C@@H]1CCCN1C(=O)[C@H](N)C(C1CCCCC1)C1CCCCC1" , report its measured pKi. 3.80

Record request: pKi value, item "O=C(NCc1cccnc1)[C@@H]1CCCN1C(=O)[C@@H](Cc1ccc(Cl)c(Cl)c1)NS(=O)(=O)Cc1ccccc1" 3.64

###

# Test Description: pKa was determined
# Format: physicochemical
Experimental Endpoint: pKa
Number only, please.

Please report the recorded pKa for "Nc1ccc(CNC(=O)[C@@H]2CCCN2C(=O)[C@H](N)C(C2CCCCC2)C2CCCCC2)cn1" . 6.2

Give its pKa value. Item: "CC(C)(C)OC(=O)N[C@@H](C(=O)N1CCC[C@H]1C(=O)NCc1ccc(N)nc1)C(C1CCCCC1)C1CCCCC1" 6.5

Recorded pKa of "Nc1ccc(CNC(=O)[C@@H]2CCCN2C(=O)[C@@H](Cc2ccc(Cl)c(Cl)c2)NS(=O)(=O)Cc2ccccc2)cc1" , please. 4.8

Item under review: "CN[C@H](Cc1ccccc1)C(=O)N1CCC[C@H]1C(=O)NC[C@H]1CC[C@H](N)CC1" . Reported pKa? 10.2

###

# Test Description: Oral bioavailability in rat
# Assay type: ADME, organism-based
# Measurement Context: in vivo
Experimental Endpoint: bioavailability (%)
Report as a plain number; the unit % is understood.

Reported bioavailability for "CN[C@H](Cc1ccccc1)C(=O)N1CCC[C@H]1C(=O)NC[C@H]1CC[C@H](N)CC1" : what is it? 1

Name the recorded bioavailability for "Nc1ccc(CNC(=O)[C@@H]2CCCN2C(=O)[C@H](N)C(C2CCCCC2)C2CCCCC2)cn1" . 76

Entry under review: "CC(C)(C)OC(=O)N[C@@H](C(=O)N1CCC[C@H]1C(=O)NCc1ccc(N)nc1)C(C1CCCCC1)C1CCCCC1" . Reported bioavailability? 60

Name the reported bioavailability value associated with the compound "Cc1cc(N)nc(C)c1CNC(=O)[C@@H]1CCCN1C(=O)[C@H](NC(=O)OC(C)(C)C)C(c1ccccc1)c1ccccc1" 40

Recorded bioavailability for "Nc1ccc(CNC(=O)[C@@H]2CCCN2C(=O)[C@@H](Cc2ccc(Cl)c(Cl)c2)NS(=O)(=O)Cc2ccccc2)cc1" , please? 35
